System: Tomato; note: key: 1: no perceptible injury; 2: intermediate degrees of injury based upon the number and extent to which leaves were injured; 3: intermediate degrees of injury based upon the number and extent to which leaves were injured; 4: intermediate degrees of injury based upon the number and extent to which leaves were injured; 5: the plant was dead
Assay type: in vivo
protocol_conditions: 2500 ppm spray, ten days, rating 1-5
# Phytotoxicity, Tomato per record follows
Reply: number alone, nothing else.

The following compounds have reported results that may help.
{"compound": "CCCCCCCCCCCCc1ccc(OC(=O)N(C)SN(C)C(=O)Oc2cccc3ccccc23)cc1", "assay_system": "Tomato", "Phytotoxicity, Tomato": 1}
{"compound": "COC(=O)Nc1ccc(OC(=O)N(C)SN(C)C(=O)Oc2ccc(NC(=O)OC)c(C(C)C)c2)cc1C(C)C", "assay_system": "Tomato", "Phytotoxicity, Tomato": 1}
{"compound": "CCCCCCCCCc1ccc(OC(=O)N(C)SN(C)C(=O)Oc2cccc3ccccc23)cc1", "assay_system": "Tomato", "Phytotoxicity, Tomato": 1}

Please look up its Phytotoxicity, Tomato: Cc1cc(OC(=O)N(C)SN(C)C(=O)Oc2ccc(N=CN(C)C)c(C)c2)ccc1N=CN(C)C [drawing 41]
1

# Phytotoxicity, Tomato lookup, item C=CCc1ccc(OC(=O)N(C)SN(C)C(=O)Oc2ccc(CC=C)cc2OC)c(OC)c1
1

So what's the measured Phytotoxicity, Tomato for this one? CN(SN(C)C(=O)Oc1ccc(Oc2ccccc2)cc1)C(=O)Oc1ccc(Oc2ccccc2)cc1
1

Given the entry Cc1cc(OC(=O)N(C)SN(C)C(=O)Oc2ccc(N=CN(C)C)c(C)c2)ccc1N=CN(C)C [drawing 37] , report its measured Phytotoxicity, Tomato.
1

Any idea what its Phytotoxicity, Tomato is? The compound is Cc1cc(OC(=O)N(C)SN(C)C(=O)Oc2ccc(N=CN(C)C)c(C)c2)ccc1N=CN(C)C [drawing 39]
1

Given the compound CN(SN(C)C(=O)Oc1cccc2c1OC(C)(C)C2)C(=O)Oc1ccccc1C1SCCS1 , what is its reported Phytotoxicity, Tomato?
1

Quick one: Phytotoxicity, Tomato for C#CCOc1ccccc1OC(=O)N(C)SN(C)C(=O)Oc1cccc2ccccc12 ?
1

Can you look up the measured Phytotoxicity, Tomato of CN(SN(C)C(=O)Oc1ccccc1C1SCCS1)C(=O)Oc1ccccc1C1SCCS1 for me?
1

* * *

Test system: Bean; note: key: 1: no perceptible injury; 2: intermediate degrees of injury based upon the number and extent to which leaves were injured; 3: intermediate degrees of injury based upon the number and extent to which leaves were injured; 4: intermediate degrees of injury based upon the number and extent to which leaves were injured; 5: the plant was dead
Type: in vivo
protocol_conditions: 2500 ppm spray, ten days, rating 1-5
Experimental: POST-EMERGENT HERBICIDAL TEST Experiments were also conducted to determine the phytotoxicity of representative compositions with respect to healthy fresh plants. Solutions of the compounds were prepared as described above to provide a concentration of 2500 parts per million of the test compound. […]
Listing of recorded Phytotoxicity, Bean by entry.

Item CN(SN(C)C(=O)Oc1ccccc1C1SCCS1)C(=O)Oc1ccccc1C1SCCS1 has what recorded Phytotoxicity, Bean?
1

Give its Phytotoxicity, Bean value. Item: COC(=O)Nc1ccc(OC(=O)N(C)SN(C)C(=O)Oc2ccc(NC(=O)OC)c(C(C)C)c2)cc1C(C)C
1

Name the recorded Phytotoxicity, Bean for C#CCOc1ccccc1OC(=O)N(C)SN(C)C(=O)Oc1cccc2ccccc12 .
1

Form field: reported Phytotoxicity, Bean of CCCCCCCCCc1ccc(OC(=O)N(C)SN(C)C(=O)Oc2cccc3ccccc23)cc1
1

What value of Phytotoxicity, Bean has been recorded for this entry: Cc1cc(OC(=O)N(C)SN(C)C(=O)Oc2ccc(N=CN(C)C)c(C)c2)ccc1N=CN(C)C [drawing 37]
1

* * *

Listing of recorded Phytotoxicity, Bean by entry.
Test system: Bean; note: key: 1: no perceptible injury; 2: intermediate degrees of injury based upon the number and extent to which leaves were injured; 3: intermediate degrees of injury based upon the number and extent to which leaves were injured; 4: intermediate degrees of injury based upon the number and extent to which leaves were injured; 5: the plant was dead
Format: in vivo
protocol_conditions: 2500 ppm spray, ten days, rating 1-5
Could you respond with only the numeric value?

Recorded results for 5 compounds are shown here.
{"compound": "CN(SN(C)C(=O)Oc1ccc(Oc2ccccc2)cc1)C(=O)Oc1ccc(Oc2ccccc2)cc1", "Phytotoxicity, Bean": 1}
{"compound": "Cc1cc(OC(=O)N(C)SN(C)C(=O)Oc2ccc(N=CN(C)C)c(C)c2)ccc1N=CN(C)C [drawing 39]", "Phytotoxicity, Bean": 2}
{"compound": "CN(SN(C)C(=O)Oc1cccc2c1OC(C)(C)C2)C(=O)Oc1ccccc1C1SCCS1", "Phytotoxicity, Bean": 1}
{"compound": "CCCCCCCCCCCCc1ccc(OC(=O)N(C)SN(C)C(=O)Oc2cccc3ccccc23)cc1", "Phytotoxicity, Bean": 1}
{"compound": "Cc1cc(OC(=O)N(C)SN(C)C(=O)Oc2ccc(N=CN(C)C)c(C)c2)ccc1N=CN(C)C [drawing 41]", "Phytotoxicity, Bean": 1}

# ---- query compound ----
Entry C=CCc1ccc(OC(=O)N(C)SN(C)C(=O)Oc2ccc(CC=C)cc2OC)c(OC)c1 , system Bean: what Phytotoxicity, Bean was measured?; note: key: 1: no perceptible injury; 2: intermediate degrees of injury based upon the number and extent to which leaves were injured; 3: intermediate degrees of injury based upon the number and extent to which leaves were injured; 4: intermediate degrees of injury based upon the number and extent to which leaves were injured; 5: the plant was dead
1

* * *

Test system: Soybean
Format: in vivo
protocol_conditions: 2500 ppm spray, ten days, rating 1-5
Method: POST-EMERGENT HERBICIDAL TEST Experiments were also conducted to determine the phytotoxicity of representative compositions with respect to healthy fresh plants. Solutions of the compounds were prepared as described above to provide a concentration of 2500 parts per million of the test compound. […]
Attribute: Phytotoxicity, Soybean
Give a plain numeric answer without units written out.

// solved cases for Phytotoxicity, Soybean follow
{"compound": "CN(SN(C)C(=O)Oc1ccc(Oc2ccccc2)cc1)C(=O)Oc1ccc(Oc2ccccc2)cc1", "observed_measurement": 1}
{"compound": "C#CCOc1ccccc1OC(=O)N(C)SN(C)C(=O)Oc1cccc2ccccc12", "observed_measurement": 2}
{"compound": "Cc1cc(OC(=O)N(C)SN(C)C(=O)Oc2ccc(N=CN(C)C)c(C)c2)ccc1N=CN(C)C [drawing 41]", "observed_measurement": 2}
{"compound": "CN(SN(C)C(=O)Oc1cccc2c1OC(C)(C)C2)C(=O)Oc1ccccc1C1SCCS1", "observed_measurement": 1}
{"compound": "CCCCCCCCCc1ccc(OC(=O)N(C)SN(C)C(=O)Oc2cccc3ccccc23)cc1", "observed_measurement": 1}

Given Cc1cc(OC(=O)N(C)SN(C)C(=O)Oc2ccc(N=CN(C)C)c(C)c2)ccc1N=CN(C)C [drawing 37] , state its recorded Phytotoxicity, Soybean.
1

Return reported Phytotoxicity, Soybean; argument: C=CCc1ccc(OC(=O)N(C)SN(C)C(=O)Oc2ccc(CC=C)cc2OC)c(OC)c1
1

Give its Phytotoxicity, Soybean value. Item: CCCCCCCCCCCCc1ccc(OC(=O)N(C)SN(C)C(=O)Oc2cccc3ccccc23)cc1
1

Fill in: Phytotoxicity, Soybean of Cc1cc(OC(=O)N(C)SN(C)C(=O)Oc2ccc(N=CN(C)C)c(C)c2)ccc1N=CN(C)C [drawing 39] is ___
2

Find the recorded Phytotoxicity, Soybean belonging to CN(SN(C)C(=O)Oc1ccccc1C1SCCS1)C(=O)Oc1ccccc1C1SCCS1 and report it.
1

Give its Phytotoxicity, Soybean value. Item: COC(=O)Nc1ccc(OC(=O)N(C)SN(C)C(=O)Oc2ccc(NC(=O)OC)c(C(C)C)c2)cc1C(C)C
1
